Molecular target: MLKL (Homo sapiens, UniProt Q8NB16)
Sequence (Q8NB16 whole entry): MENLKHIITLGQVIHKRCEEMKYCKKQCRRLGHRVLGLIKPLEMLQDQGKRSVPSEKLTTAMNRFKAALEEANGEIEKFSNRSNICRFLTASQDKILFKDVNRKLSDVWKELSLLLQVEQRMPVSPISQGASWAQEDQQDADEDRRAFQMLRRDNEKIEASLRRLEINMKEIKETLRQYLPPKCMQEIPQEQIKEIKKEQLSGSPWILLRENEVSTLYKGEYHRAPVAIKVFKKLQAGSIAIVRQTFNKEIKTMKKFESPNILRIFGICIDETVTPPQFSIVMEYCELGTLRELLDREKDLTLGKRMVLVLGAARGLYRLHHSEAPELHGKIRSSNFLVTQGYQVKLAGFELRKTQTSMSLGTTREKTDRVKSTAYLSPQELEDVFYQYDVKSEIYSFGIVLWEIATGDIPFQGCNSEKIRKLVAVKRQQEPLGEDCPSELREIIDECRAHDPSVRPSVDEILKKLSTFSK
Assay: MLKL degradation assay in HepG2 cell line (western blot)
Format: cell-based
Set-up: endogenous in cells; host or cells: HepG2 or HaCaT
Conditions: compound 1 μM; cell line not given
OBSERVED PROPERTY: Degradation assay (Degradation %) 1 μM

MOLECULE	Degradation assay (Degradation %) 1 μM
Cc1cccc(NC(=O)[C@H](OC(=O)c2nc(-c3cnn(C4CCN(CCCN5CCN(C(=O)COc6ccc7c(c6)C(=O)N(C6CCC(=O)NC6=O)C7=O)CC5)CC4)c3)cnc2N)c2ccccc2)c1 (some centres unmarked) [TDH-487]	77.25
Nc1ncc(-c2cnn(C3CCN(CC4CCN(c5ccc6nnn(C7CCC(=O)NC7=O)c(=O)c6c5)CC4)CC3)c2)nc1C(=O)O[C@@H](C(=O)Nc1ccc(F)cc1)c1ccccc1 (some centres unmarked) [TDH-172]	59.24
Nc1ncc(-c2cnn(C3CCN(C(=O)CC4CCN(C(=O)COc5ccc6c(c5)C(=O)N(C5CCC(=O)NC5=O)C6=O)CC4)CC3)c2)nc1C(=O)O[C@@H](C(=O)Nc1ccc(F)cc1)c1ccccc1 (some centres unmarked) [TDH-338]	59.83
Nc1ncc(-c2cnn(C3CCN(CCC4CCN(C(=O)CC5CCN(c6cccc7c6C(=O)N(C6CCC(=O)NC6=O)C7=O)CC5)CC4)CC3)c2)nc1C(=O)O[C@@H](C(=O)Nc1ccc(F)cc1)c1ccccc1 (some centres unmarked) [TDH-366]	87.27
Nc1ncc(-c2cnn(C3CCN(CCOC4CCN(C(=O)COc5cccc6c5C(=O)N(C5CCC(=O)NC5=O)C6=O)CC4)CC3)c2)nc1C(=O)OC(C(=O)Nc1ccc(F)cc1)c1ccccc1 (centres unmarked) [TDH-251]	72.87

Where these numbers come from: patent US20240252488A1
